Tested on: E. coli ATCC25922
Assay: Bacterial growth minimal inhibitory concentration (microdilution, cation-adjusted Mueller-Hinton Broth)
Type: cell-based
Settings: Escherichia coli, ATCC25922; quinolone-sensitive strain
Description: Minimal Inhibitory Concentrations (MICs; mg/L) were determined in cation-adjusted Mueller-Hinton Broth by a microdilution method following the description given in “Methods for Dilution Antimicrobial Susceptibility Tests for Bacteria that grow Aerobically”, Approved standard, 7th ed., Clinical and Laboratory Standards Institute (CLSI) Document M7-A7, Wayne, Pa., USA (2006). All Example compounds were tested against several Gram-positive and Gram-negative bacteria. […]
RECORDED_ENDPOINT: MIC (µg/mL)

Previously resolved entries follow.
# MOLECULE, RECORDED_VALUE
measured = [
    ("C[C@@](CCN1Cc2cc(C#Cc3ccc(CCO)cc3)ccc2C1=O)(C(=O)NO)S(C)(=O)=O [Example 33]", 0.125),
    ("CN(C)CC(=O)OC[C@H]1C[C@@H]1C#CC#Cc1cc2c(s1)C(=O)N(CC[C@](C)(C(=O)NO)S(C)(=O)=O)C2 [Example 20]", 0.125),
    ("C[C@@](CCN1Cc2cc(C#CC#CC3(CO)CC3)ccc2C1=O)(C(=O)NO)S(C)(=O)=O [Example 12]", 0.031),
    ("C[C@@](CCN1Cc2cc(C#CC#CC3(N)CC3)ccc2C1=O)(C(=O)NO)S(C)(=O)=O [Example 13]", 0.5),
]

I = CN1[C@@H](CO)C[C@@H]1C#CC#Cc1cc2c(s1)C(=O)N(CC[C@](C)(C(=O)NO)S(C)(=O)=O)C2 [Example 40]
II = C[C@@](CCN1Cc2cc(C#CC#CC3CN(CCO)C3)sc2C1=O)(C(=O)NO)S(C)(=O)=O [Example 17]
Prompt line: Could you point out whether the larger MIC belongs to I or to II ? In your reply, give the label of the chosen option.
Response line: II

----------
System: E. coli ATCC25922
Experiment: Bacterial growth minimal inhibitory concentration (microdilution, cation-adjusted Mueller-Hinton Broth)
Format: cell-based
Conditions: Escherichia coli, ATCC25922; quinolone-sensitive strain
RECORDED_ENDPOINT: MIC (mg/L)

Solved entries (count: 3):
# MOLECULE, MIC / mg/L
measured = [
    ("CN1CC(C#CC#Cc2ccc3c(c2)CN(CC[C@](C)(C(=O)NO)S(C)(=O)=O)C3=O)C1 [Example 8]", 1),
    ("C[C@@](CCN1Cc2cc(C#CC#CCOC(=O)N3CC(O)C3)ccc2C1=O)(C(=O)NO)S(C)(=O)=O [Example 9]", 1),
    ("CN1C[C@@H](C#CC#Cc2cc3c(s2)C(=O)N(CC[C@](C)(C(=O)NO)S(C)(=O)=O)C3)C[C@@H]1CO [Example 36]", 0.5),
]

P = CC(CCN1Cc2cc(C#CC#CC3(CO)CC3)sc2C1=O)(C(=O)NO)S(C)(=O)=O (racemic) [Reference Example 2]
Q = C[C@@](CCN1Cc2cc(C#CC#C[C@H]3C[C@]3(F)CO)sc2C1=O)(C(=O)NO)S(C)(=O)=O [Example 4]
R = C[C@@](CCN1Cc2cc(C#CC#CC3CN([C@@H]4CCOC4)C3)sc2C1=O)(C(=O)NO)S(C)(=O)=O (single isomer, unassigned) [Example 37]
S = C[C@@](CCN1Cc2cc(C#Cc3ccc(CN4CC(F)C4)cc3)sc2C1=O)(C(=O)NO)S(C)(=O)=O [Example 14]
T = C[C@@](CCN1Cc2cc(C#CC#C[C@H]3C[C@@H]3CO)sc2C1=O)(C(=O)NO)S(C)(=O)=O [Example 19]
Prompt line: Arrange by MIC, high to low. In plain terms: list the labels in the order you were asked to.
Response line: P, R, Q, T, S
(P: 1 mg/L, R: 0.5 mg/L, Q: 0.25 mg/L, T: 0.125 mg/L, S: 0.031 mg/L)

a = C[C@@](CCN1Cc2cc(C#CC#CCOC(=O)N3CC(O)C3)sc2C1=O)(C(=O)NO)S(C)(=O)=O [Example 6]
b = CC(C)(CO)c1ccc(C#Cc2cc3c(s2)C(=O)N(CCC(C)(C(=O)NO)S(C)(=O)=O)C3)cc1 (racemic) [Reference Example 1]
c = CNC1(C#CC#Cc2cc3c(s2)C(=O)N(CC[C@](C)(C(=O)NO)S(C)(=O)=O)C3)CC1 [Example 5]
d = C[C@@](CCN1Cc2cc(C#CC#CC3CN(CCF)C3)sc2C1=O)(C(=O)NO)S(C)(=O)=O [Example 23]
Prompt line: In this exercise, place the 4 molecules in ascending sequence of their recorded MIC. Kindly provide the labels arranged according to the requested ordering.
Response line: d, c, b, a
(d: 0.063 mg/L, c: 0.125 mg/L, b: 0.25 mg/L, a: 1 mg/L)

1 = C[C@@](CCN1Cc2cc(C#CC#CC3CN([C@H]4CCOC4)C3)sc2C1=O)(C(=O)NO)S(C)(=O)=O (single isomer, unassigned) [Example 38]
2 = C[C@@](CCN1Cc2cc(C#CC#C[C@@H]3C[C@H]3CO)sc2C1=O)(C(=O)NO)S(C)(=O)=O (single isomer, unassigned) [Example 1]
Prompt line: Recorded MIC values differ for 1 and 2 ; which one is higher? // respond with label for picked entry
Response line: 1
(1: 0.25 mg/L, 2: 0.125 mg/L)

----------
System: E. coli ATCC25922
Test: Bacterial growth minimal inhibitory concentration (microdilution, cation-adjusted Mueller-Hinton Broth)
Type: cell-based
Conditions: Escherichia coli, ATCC25922; quinolone-sensitive strain
RECORDED_ENDPOINT: MIC (µg/mL)

Recorded results for 2 molecules are shown here.
# MOL, ASSAY_SYSTEM, MIC [µg/mL]
rows = [
    ("CN1C[C@H](C#CC#Cc2cc3c(s2)C(=O)N(CC[C@](C)(C(=O)NO)S(C)(=O)=O)C3)[C@H]1CF", "E. coli ATCC25922", 0.125),
    ("COc1ccc(-c2ccc3c(c2)CN(CC[C@](C)(C(=O)NO)S(C)(=O)=O)C3=O)c(F)c1", "E. coli ATCC25922", 0.125),
]

A = C[C@@](CCN1Cc2cc(C#CC#C[C@H]3C[C@@H]3CN3CC(F)C3)sc2C1=O)(C(=O)NO)S(C)(=O)=O
B = CC(C)(O)CN1CC(C#CC#Cc2cc3c(s2)C(=O)N(CC[C@](C)(C(=O)NO)S(C)(=O)=O)C3)C1
Prompt line: Between the entries labelled A and B , which has a larger MIC value on record? Indicate which entry you chose by stating its label.
Response line: B

----------
System: P. aeruginosa ATCC27853
Assay: Bacterial growth minimal inhibitory concentration (microdilution, cation-adjusted Mueller-Hinton Broth)
Type: cell-based
Conditions: Pseudomonas aeruginosa, ATCC27853; quinolone-sensitive strain
RECORDED_ENDPOINT: MIC (µg/mL)

Recorded MIC, per entry:
# MOLECULE, UNIT_TAG, MIC
records = [
    ("C[C@@](CCN1Cc2cc(C#CC#CC3CN(C4CCOCC4)C3)sc2C1=O)(C(=O)NO)S(C)(=O)=O", "µg/mL", 1),
    ("CN(C)CC(=O)OC[C@H]1C[C@@H]1C#CC#Cc1cc2c(s1)C(=O)N(CC[C@](C)(C(=O)NO)S(C)(=O)=O)C2", "µg/mL", 1),
    ("CC(CCN1Cc2cc(C#CC#CC3(CO)CC3)sc2C1=O)(C(=O)NO)S(C)(=O)=O (racemic) [Reference Example 2]", "µg/mL", 2),
]

I = CN1C[C@H](C#CC#Cc2cc3c(s2)C(=O)N(CC[C@](C)(C(=O)NO)S(C)(=O)=O)C3)[C@H]1CF
II = COc1ccc(-c2cc3c(s2)C(=O)N(CC[C@](C)(C(=O)NO)S(C)(=O)=O)C3)c(F)c1
Prompt line: Pick one, I or II : lowest reported MIC. Output the label that corresponds to your choice.
Response line: I
(I: 1 µg/mL, II: 2 µg/mL)

P = C[C@@](CCN1Cc2cc(C#CC#CC3(N)CC3)sc2C1=O)(C(=O)NO)S(C)(=O)=O
Q = CN1CC(C#CC#Cc2cc3c(s2)C(=O)N(CC[C@](C)(C(=O)NO)S(C)(=O)=O)C3)C1
Prompt line: // compare: P vs Q , metric MIC, want the smaller Bench note: the answer is the label of the chosen record.
Response line: Q
(Q: 0.5 µg/mL, P: 1 µg/mL)

a = CC(C)N1CC(C#CC#Cc2cc3c(s2)C(=O)N(CC[C@](C)(C(=O)NO)S(C)(=O)=O)C3)C1
b = C[C@@](CCN1Cc2cc(C#CC#CC3CN(CC4(O)COC4)C3)sc2C1=O)(C(=O)NO)S(C)(=O)=O
c = C[C@@](CCN1Cc2cc(C#CC#CC3CN(C4COC4)C3)sc2C1=O)(C(=O)NO)S(C)(=O)=O
d = COc1ccc(-c2ccc3c(c2)CN(CC[C@](C)(C(=O)NO)S(C)(=O)=O)C3=O)c(F)c1
Prompt line: Kindly order the items shown according to MIC, from the highest value down. List the labels according to the requested ordering.
Response line: d, c, b, a

I = CN1C[C@@H](C#CC#Cc2cc3c(s2)C(=O)N(CC[C@](C)(C(=O)NO)S(C)(=O)=O)C3)C[C@@H]1CO
II = CC(C)(CO)c1ccc(C#Cc2cc3c(s2)C(=O)N(CCC(C)(C(=O)NO)S(C)(=O)=O)C3)cc1 (racemic) [Reference Example 1]
III = C[C@@](CCN1Cc2cc(C#CC#C[C@H]3C[C@]3(F)CO)sc2C1=O)(C(=O)NO)S(C)(=O)=O
Prompt line: Hi! Can you put these in order of MIC, lowest number first? The labels, placed in the requested order, form the answer.
Response line: III, I, II
